- measured_target: Recombinant human FcγRIIIa-V158 (human, UniProt P08637 17-208)
- Sequence (P08637 17-208 F176V): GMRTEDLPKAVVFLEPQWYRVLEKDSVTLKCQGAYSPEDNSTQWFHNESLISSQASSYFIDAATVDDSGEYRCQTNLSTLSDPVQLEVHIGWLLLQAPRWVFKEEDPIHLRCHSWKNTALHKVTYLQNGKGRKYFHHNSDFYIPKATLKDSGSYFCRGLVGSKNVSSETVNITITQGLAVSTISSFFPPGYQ
- test_protocol: SPR; +kif
measured_endpoint: Kd (nM)
Answers are plain numbers, in nM.

Challenge: Quote Kd reported for human IgG1 antibody specific for protein 4, T256D/T307Q + R292C/V302C, +Kif (antibody) ASTKGPSVFPLAPSSKSTSGGTAALGCLVKDYFPEPVTVSWNSGALTSGVHTFPAVLQSSGLYSLSSVVTVPSSSLGTQTYICNVNHKPSNTKVDKKVEPKSCDKTHTCPPCPAPELLGGPSVFLFPPKPKDTLMISRDPEVTCVVVDVSHEDPEVKFNWYVDGVEVHNAKTKPCEEQYNSTYRCVSVLQVLHQDWLNGKEYKCKVSNKALPAPIEKTISKAKGQPREPQVYTLPPSRDELTKNQVSLTCLVKGFYPSDIAVEWESNGQPENNYKTTPPVLDSDGSFFLYSKLTVDKSRWQQGNVFSCSVMHEALHNHYTQKSLSLSPGK please.
Response given: 153
